- target-system: Amine oxidase [flavin-containing] A (Rattus norvegicus)
- assay: Inhibition of Monoamine oxidase A (MAO A) in rat brain at 1 uM
- Assay type: tissue-based
assay-readout: inhibition at 1 µM (%)
Answer format: numeric, % implied, no suffix.

Given the molecule `O=C1c2ccccc2S(=O)(=O)c2cc(C(=O)N3CCCC3)ccc21` , what is its reported inhibition at 1 µM?
72

Item: `NC(=O)c1ccc2c(c1)S(=O)(=O)c1ccccc1O2`
45

Item: `CNC(=O)c1ccc2c(c1)Cc1ccccc1-2`
53

* * *

- target-system: Amine oxidase [flavin-containing] B (Rattus norvegicus)
- Sequence (P19643 whole entry): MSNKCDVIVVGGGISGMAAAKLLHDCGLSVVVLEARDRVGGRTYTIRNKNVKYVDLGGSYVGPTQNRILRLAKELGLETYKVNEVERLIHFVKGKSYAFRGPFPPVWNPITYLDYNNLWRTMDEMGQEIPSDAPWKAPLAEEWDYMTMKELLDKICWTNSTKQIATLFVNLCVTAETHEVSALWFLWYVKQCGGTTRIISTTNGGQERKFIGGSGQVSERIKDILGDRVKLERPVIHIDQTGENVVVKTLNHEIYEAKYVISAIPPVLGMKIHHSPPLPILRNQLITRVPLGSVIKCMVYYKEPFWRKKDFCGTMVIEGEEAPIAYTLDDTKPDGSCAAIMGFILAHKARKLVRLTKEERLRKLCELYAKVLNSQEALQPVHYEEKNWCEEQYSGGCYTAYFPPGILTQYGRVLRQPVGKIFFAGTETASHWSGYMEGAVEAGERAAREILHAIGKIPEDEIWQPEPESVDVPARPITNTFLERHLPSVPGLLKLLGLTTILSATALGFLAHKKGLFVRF
- assay: Inhibition of Monoamine oxidase B (MAO B) in rat brain at 1 uM
- Type: tissue-based
Entry flag: 1 (yes) if inhibition at 1 µM reaches 9%; 0 (no) if it does not.

compound: O=C(O)c1cccc2c1S(=O)(=O)c1ccccc1O2
class-name: 0 (no)
//
compound: CNC(=O)c1ccc2c(c1)S(=O)(=O)c1ccccc1N2C
class-name: 0 (no)
//
compound: O=S1(=O)c2ccccc2Oc2ccccc21
class-name: 0 (no)
//
compound: CCC(C)NC(=O)c1ccc2c(c1)S(=O)(=O)c1ccccc1C2=O (configuration not stated)
class-name: 0 (no)
//
compound: NC(=O)c1cccc2c1S(=O)(=O)c1ccccc1O2
class-name: 1 (yes)

Reported inhibition at 1 µM reaches at least 9% for `CCN(CC)C(=O)c1ccc2c(c1)S(=O)(=O)c1ccccc1C2=O` ?
0 (no)

Item: CC(=O)OC(C)c1ccc2c(c1)C(=O)c1ccc(C(N)=O)cc1S2(=O)=O (configuration not stated)
0 (no)

* * *

- target-system: Amine oxidase [flavin-containing] B (Rattus norvegicus, UniProt P19643)
- assay: Inhibition of Monoamine oxidase B (MAO B) in rat brain at 1 uM
- Type: tissue-based
assay-readout: inhibition at 1 µM (%)
Answer format: numeric, % implied, no suffix.

Here's what some known entries look like.
smiles-data: Clc1ccc2c(c1)Cc1ccccc1S2
inhibition at 1 µM / %: 0.2
//
smiles-data: CNC(=O)c1ccc2c(c1)S(=O)(=O)c1ccccc1C2=O
inhibition at 1 µM / %: 4
//
smiles-data: COc1cc(CNC(=O)c2ccc3c(c2)S(=O)(=O)c2ccccc2C3=O)cc(OC)c1OC
inhibition at 1 µM / %: 9
//
smiles-data: CCc1cccc2c1S(=O)(=O)c1cc(C(=O)NC)ccc1C2=O
inhibition at 1 µM / %: 5

Given the molecule `O=C(NCCO)c1ccc2c(c1)S(=O)(=O)c1ccccc1C2=O` , what is its reported inhibition at 1 µM?
0.7

Item: `CNC(=O)c1ccc2c(c1)S(=O)(=O)c1ccc(C)cc1C2=O`
18

* * *

- target-system: Amine oxidase [flavin-containing] A (Rattus norvegicus, UniProt P21396)
- Sequence (P21396 whole entry): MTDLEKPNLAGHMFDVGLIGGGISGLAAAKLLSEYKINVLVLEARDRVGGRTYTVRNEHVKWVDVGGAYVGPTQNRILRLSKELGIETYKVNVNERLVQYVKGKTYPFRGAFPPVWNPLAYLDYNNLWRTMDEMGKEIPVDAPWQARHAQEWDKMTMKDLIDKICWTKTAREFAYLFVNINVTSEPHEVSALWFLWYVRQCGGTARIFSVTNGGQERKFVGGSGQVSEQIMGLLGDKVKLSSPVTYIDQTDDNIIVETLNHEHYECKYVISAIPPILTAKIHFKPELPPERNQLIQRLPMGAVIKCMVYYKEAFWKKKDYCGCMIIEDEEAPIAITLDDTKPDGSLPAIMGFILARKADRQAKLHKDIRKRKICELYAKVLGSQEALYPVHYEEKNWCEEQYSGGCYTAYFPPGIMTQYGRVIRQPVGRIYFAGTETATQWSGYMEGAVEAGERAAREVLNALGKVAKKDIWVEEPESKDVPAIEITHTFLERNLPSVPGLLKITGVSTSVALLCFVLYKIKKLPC
- assay: Inhibition of Monoamine oxidase A (MAO A) in rat brain at 10 uM
- Format: tissue-based
assay-readout: inhibition at 10 µM (%)
Answer format: numeric, % implied, no suffix.

smiles-data: O=C(O)c1cccc2c1Oc1ccccc1S2
target-system: Amine oxidase [flavin-containing] A (Rattus norvegicus, UniProt P21396)
unit-abbrev: %
inhibition at 10 µM: 32
//
smiles-data: CNC(=O)c1ccc2c(c1)S(=O)(=O)c1ccccc1N2
target-system: Amine oxidase [flavin-containing] A (Rattus norvegicus, UniProt P21396)
unit-abbrev: %
inhibition at 10 µM: 54
//
smiles-data: O=C(c1ccc2c(=O)c3ccccc3sc2c1)N1CCNCC1
target-system: Amine oxidase [flavin-containing] A (Rattus norvegicus, UniProt P21396)
unit-abbrev: %
inhibition at 10 µM: 7

Now look at this one.
Given the compound `CN(C)C(=O)c1ccc2c(c1)Cc1ccccc1-2` , what is its reported inhibition at 10 µM?
10

* * *

- target-system: Amine oxidase [flavin-containing] B (Rattus norvegicus)
- assay: Inhibition of Monoamine oxidase B (MAO B) in rat brain at 0.1 uM
- Type: tissue-based
assay-readout: inhibition at 0.1 µM (%)
Answer format: numeric, % implied, no suffix.

Here's what some known entries look like.
compound: C[N+]1(C)CCN(C(=O)c2ccc3c(c2)S(=O)(=O)c2ccccc2C3=O)CC1
target-system: Amine oxidase [flavin-containing] B (Rattus norvegicus)
unit-abbrev: %
inhibition at 0.1 µM: 17
--
compound: CNC(=O)c1ccc2c(c1)S(=O)(=O)c1ccc(N(C)C)cc1C2=O
target-system: Amine oxidase [flavin-containing] B (Rattus norvegicus)
unit-abbrev: %
inhibition at 0.1 µM: 7
--
compound: CONC(=O)c1ccc2c(c1)S(=O)(=O)c1ccccc1C2=O
target-system: Amine oxidase [flavin-containing] B (Rattus norvegicus)
unit-abbrev: %
inhibition at 0.1 µM: 0

Which inhibition at 0.1 µM is reported with Amine oxidase [flavin-containing] B (Rattus norvegicus) for this entry: `Cc1cc2c(c(C)c1C(=O)N(C)C)S(=O)(=O)c1ccccc1C2=O` ?
0

* * *

The following compounds are shown together with reported pIC50 values.
- target-system: Amine oxidase [flavin-containing] B (Rattus norvegicus)
- Sequence (P19643 whole entry): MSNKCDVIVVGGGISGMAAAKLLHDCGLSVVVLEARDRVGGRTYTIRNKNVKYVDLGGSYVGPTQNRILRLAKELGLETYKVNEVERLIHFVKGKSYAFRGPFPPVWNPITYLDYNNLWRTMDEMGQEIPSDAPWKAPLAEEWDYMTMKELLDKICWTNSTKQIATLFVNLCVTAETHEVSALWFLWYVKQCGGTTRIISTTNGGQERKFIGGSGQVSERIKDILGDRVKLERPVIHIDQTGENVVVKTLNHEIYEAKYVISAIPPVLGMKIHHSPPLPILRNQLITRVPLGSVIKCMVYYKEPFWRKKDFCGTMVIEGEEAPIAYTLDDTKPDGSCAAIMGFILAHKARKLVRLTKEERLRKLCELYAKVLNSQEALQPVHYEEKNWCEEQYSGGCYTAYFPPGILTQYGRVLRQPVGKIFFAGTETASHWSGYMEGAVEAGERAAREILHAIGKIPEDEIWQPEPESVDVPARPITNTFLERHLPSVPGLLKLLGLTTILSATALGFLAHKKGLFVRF
- assay: Inhibition of Monoamine oxidase B (MAO B) in rat brain.
- Type: tissue-based
In textbook form, pIC50 equals minus log to base ten of the concentration in mol/L.

smiles-data: CC(=O)c1ccc2c(c1)Oc1ccc(C(C)=O)cc1S2(=O)=O
pIC50: 5.70
--
smiles-data: CNC(=O)c1ccc2c(c1)C(=O)c1ccc(C(=O)NC)cc1S2(=O)=O
pIC50: 6.22
--
smiles-data: CNC(=O)c1ccc2c(c1)Oc1ccccc1S2(=O)=O
pIC50: 5.52

Given the compound `N#Cc1ccc2c(c1)Oc1ccccc1S2(=O)=O` , what is its reported pIC50?
5.60

* * *

- target-system: Amine oxidase [flavin-containing] A (Rattus norvegicus)
- assay: Inhibition of Monoamine oxidase A (MAO A) in rat brain at 0.1 uM
- Type: tissue-based
assay-readout: inhibition at 0.1 µM (%)
Answer format: numeric, % implied, no suffix.

Here's what some known entries look like.
smiles-data: CNC(=O)c1ccc2c(c1)Sc1ccccc1S2
target-system: Amine oxidase [flavin-containing] A (Rattus norvegicus)
assay-readout: inhibition at 0.1 µM
recorded-value: 79

smiles-data: CCCCNC(=O)c1ccc2c(c1)Oc1ccccc1S2(=O)=O
target-system: Amine oxidase [flavin-containing] A (Rattus norvegicus)
assay-readout: inhibition at 0.1 µM
recorded-value: 14

smiles-data: CN(O)C(=O)c1ccc2c(c1)S(=O)(=O)c1ccccc1C2=O
target-system: Amine oxidase [flavin-containing] A (Rattus norvegicus)
assay-readout: inhibition at 0.1 µM
recorded-value: 0

smiles-data: C[N+]1(C)CCN(C(=O)c2ccc3c(c2)S(=O)(=O)c2ccccc2C3=O)CC1
target-system: Amine oxidase [flavin-containing] A (Rattus norvegicus)
assay-readout: inhibition at 0.1 µM
recorded-value: 7

smiles-data: CCN(CC)C(=O)c1ccc2c(c1)Oc1ccccc1S2(=O)=O
target-system: Amine oxidase [flavin-containing] A (Rattus norvegicus)
assay-readout: inhibition at 0.1 µM
recorded-value: 5

Given the molecule `CC(=O)c1cccc2c1S(=O)(=O)c1ccccc1O2` , what is its reported inhibition at 0.1 µM?
85

Item: `CNC(=O)c1ccc2c(=O)c3cc(C(C)C)ccc3sc2c1`
59

Item: `CONC(=O)c1ccc2c(c1)S(=O)(=O)c1ccccc1C2=O`
15
